Attribute: pIC50
Molecular target: JAK1 (recombinant purified GST-tagged catalytic domain) (Homo sapiens (Human))
Test: biochemical
pIC50: −log10 of the molar value.

[
  {
    "MOLECULE": "N#C[C@H]1C[C@H](O)CC[C@@H]1n1cc(C(N)=O)c(Nc2ccc(C(F)F)nc2)n1 (single isomer, unassigned)",
    "pIC50": 8.52
  },
  {
    "MOLECULE": "N#C[C@H]1CCCC[C@@H]1n1cc(C(N)=O)c(Nc2ccc(Cl)cc2)n1 (single isomer, unassigned) [Example 17-107]",
    "pIC50": 9.02
  },
  {
    "MOLECULE": "CN([C@H]1CC[C@H](n2cc(C(N)=O)c(Nc3ccc(Cl)cc3)n2)[C@@H](C#N)C1)C(C)(C)C (single isomer, unassigned)",
    "pIC50": 9.26
  },
  {
    "MOLECULE": "CS(=O)(=O)N[C@@H]1CC[C@H](n2cc(C(N)=O)c(Nc3ccc(Cl)cc3)n2)[C@@H](C#N)C1 (racemic)",
    "pIC50": 9.05
  },
  {
    "MOLECULE": "N#C[C@H]1C[C@@H](N2CCC2)CC[C@@H]1n1cc(C(N)=O)c(Nc2ccc(OC(F)(F)F)cc2)n1 (single isomer, unassigned)",
    "pIC50": 9.15
  },
  {
    "MOLECULE": "N#C[C@H]1C[C@@H](C(=O)N[C@@H](C2CC2)C(F)(F)F)CC[C@@H]1n1cc(C(N)=O)c(Nc2ccc(Cl)cc2)n1 (single isomer, unassigned)",
    "pIC50": 6.74
  }
]

----------
Biological target: JAK1 (recombinant purified GST-tagged catalytic domain) (Homo sapiens (Human), UniProt P23458);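 also: biochemical assay with HTRF read-out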
Sequence (P23458 875-1153): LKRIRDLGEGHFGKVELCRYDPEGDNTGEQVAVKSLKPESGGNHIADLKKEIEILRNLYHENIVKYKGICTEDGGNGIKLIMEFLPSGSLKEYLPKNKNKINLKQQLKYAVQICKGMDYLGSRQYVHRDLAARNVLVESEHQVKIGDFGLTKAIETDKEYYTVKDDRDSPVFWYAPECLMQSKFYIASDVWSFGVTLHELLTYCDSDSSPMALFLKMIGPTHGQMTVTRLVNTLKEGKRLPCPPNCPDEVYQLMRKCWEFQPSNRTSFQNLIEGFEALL
Experiment: biochemical
pIC50: −log10 of the molar value.
REPORTED_ENDPOINT: pIC50

[
  {
    "MOLECULE": "N#C[C@H]1CCCCC1n1cc(C(N)=O)c(Nc2ccc(S(=O)(=O)CF)cc2)n1 (mixture of isomers) [Example 17-65]",
    "REPORTED_ENDPOINT": "pIC50",
    "RESULT": 9.80
  },
  {
    "MOLECULE": "CC1(C)CN([C@H]2CC[C@H](n3cc(C(N)=O)c(Nc4ccccc4)n3)[C@@H](C#N)C2)C1 (single isomer, unassigned) [Example 28-138]",
    "REPORTED_ENDPOINT": "pIC50",
    "RESULT": 9.05
  },
  {
    "MOLECULE": "N#C[C@H]1C[C@@H](C(=O)N2CC(F)(F)C2)CC[C@@H]1n1cc(C(N)=O)c(Nc2ccc(Cl)cc2)n1 (single isomer, unassigned) [Example 35-6]",
    "REPORTED_ENDPOINT": "pIC50",
    "RESULT": 7.21
  },
  {
    "MOLECULE": "N#C[C@H]1C[C@H](O)CCC1n1cc(C(N)=O)c(Nc2ccc(S(=O)(=O)C(F)F)cc2)n1 (mixture of isomers) [Example 14]",
    "REPORTED_ENDPOINT": "pIC50",
    "RESULT": 9.49
  },
  {
    "MOLECULE": "N#C[C@H]1C[C@@H](C(=O)NCC(F)(F)F)CC[C@@H]1n1cc(C(N)=O)c(Nc2ccc(Cl)cc2)n1 (single isomer, unassigned) [Example 35-22]",
    "REPORTED_ENDPOINT": "pIC50",
    "RESULT": 8.15
  },
  {
    "MOLECULE": "N#C[C@H]1CCCCC1n1cc(C(N)=O)c(Nc2ccc(-c3cn[nH]c3)nc2)n1 (mixture of isomers) [Example 21-3]",
    "REPORTED_ENDPOINT": "pIC50",
    "RESULT": 8.70
  },
  {
    "MOLECULE": "CC(C)NC(=O)O[C@H]1CCC(n2cc(C(N)=O)c(Nc3ccc(F)cc3)n2)[C@@H](C#N)C1 (mixture of isomers) [Example 34-8]",
    "REPORTED_ENDPOINT": "pIC50",
    "RESULT": 8.22
  },
  {
    "MOLECULE": "N#C[C@H]1CCCC[C@@H]1n1cc(C(N)=O)c(Nc2ccc(S(=O)(=O)NCc3ccccc3Cl)cc2)n1 (single isomer, unassigned) [Example 17-91]",
    "REPORTED_ENDPOINT": "pIC50",
    "RESULT": 9.30
  },
  {
    "MOLECULE": "COC(=O)C1CC[C@H](C#N)C(n2cc(C(N)=O)c(Nc3ccccc3)n2)C1 (mixture of isomers) [Example 2-4]",
    "REPORTED_ENDPOINT": "pIC50",
    "RESULT": 6.37
  },
  {
    "MOLECULE": "CO/N=C(\\C)c1ccc(Nc2nn([C@H]3CCCC[C@@H]3C#N)cc2C(N)=O)cc1 (single isomer, unassigned) [Example 40]",
    "REPORTED_ENDPOINT": "pIC50",
    "RESULT": 9.46
  },
  {
    "MOLECULE": "COC1CN([C@H]2CC[C@H](n3cc(C(N)=O)c(Nc4ccc(C(F)(F)F)cc4)n3)[C@@H](C#N)C2)C1 (single isomer, unassigned) [Example 28-99]",
    "REPORTED_ENDPOINT": "pIC50",
    "RESULT": 8.52
  },
  {
    "MOLECULE": "C[C@H](N[C@@H]1CC[C@H](n2cc(C(N)=O)c(Nc3ccc(OC(F)F)nc3)n2)[C@@H](C#N)C1)C1CC1 (single isomer, unassigned) [Example 28-13]",
    "REPORTED_ENDPOINT": "pIC50",
    "RESULT": 7.96
  }
]
